test system: Kaposi's sarcoma herpesvirus LANA C-terminal domain (residues 932-1162) DNA binding; experiment: inhibitors of KSHV C-LANA binding to DNA, primary screen, biochemical, fluorescence polarization, FAM-LBS DNA, MBP-C-LANA, single point (AID 504423); conditions: at 9 µM;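 also: 0% = neutral control wells and 100% = 4 µM acridine orange control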
Out of some 340,000 compounds screened, about 260 (0.076%) were called active.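 The calls were made as follows: active = highest replicate inhibition at or above 60% at 9 µM, even if other replicates fall short; inactive = all replicates below 60% inhibition.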 This excerpt belongs to a sample that is enriched for actives.
Your response should consist of one outcome taken from 1 for active, 0 for inactive

Cc1ccc(N2CCN(C(=O)c3cccs3)CC2)c(C)c1: 0
CCCn1c(N)c(C(=O)CSc2nnc3n2CCCCC3)c(=O)[nH]c1=O: 0
CCOC(=O)C(C)N(c1ccccc1Cl)S(C)(=O)=O (centres undefined): 0
CSc1nc(-c2ccccc2)nc(C(Cl)Cl)n1: 0
S=C(Nc1cccc(Br)c1)N1CCn2cccc2C1c1cccnc1 (centres undefined): 0
COc1cccc(Cn2cnc3c([N+](=O)[O-])c(C)c(C)cc32)c1: 0

Which outcome was assigned to CCN(CC)CCCC(C)n1c2nc(=O)[nH]c(=O)c-2nc2cc(Cl)ccc21 (centres undefined) in this test?
1

Could you please tell me the result logged for COc1cccc(N2CC(NS(=O)(=O)c3ccc(Cl)cc3)CC2=O)c1 (centres undefined) in this assay?
0

Which outcome did this test record for the compound O=C(Cc1ccc(S(=O)(=O)N2CCOCC2)s1)Nc1ccc(Br)c(C(F)(F)F)c1 ?
0

What call does the record list for COC(=O)c1cc(NC2c3ccccc3C(=O)N2c2ccc(Cl)cn2)cc(C(=O)OC)c1 (centres undefined) ?
0

So what was the verdict on C=CC1=C(C(=O)O)N2C(=O)[C@@H](NC(=O)/C(=N\OCC(=O)O)c3csc(N)n3)[C@H]2SC1 in this test?
0

What was the test verdict on Cc1cccc(-c2nc3c(c(SCC(=O)N4CCOCC4)n2)CCCC3)c1 ?
0

# outcome recorded in this test, key = Cc1c(C=O)n(C)n(-c2ccccc2)c1=O
0

Record request — test call for CC(=O)Oc1cc2c(C(=O)NCCN3CCOCC3)c(C)oc2c2ccccc12
0

What outcome does the record of this test show for Oc1ccc(-c2nc3ccccc3nc2-c2ccc(O)cc2O)c(O)c1 ?
0

Entry Cc1ccsc1C(=O)N[C@@H](C)c1nnc2ccccn12 : call = ?
0

Recorded call for CCN(Cc1ccccc1)C(=O)Cc1ccc(OC)c(S(=O)(=O)N2CCOCC2)c1 ?
0

Any idea what this test logged for Cc1cccn2c(CNCC(C)Oc3cccnc3)c(C(=O)N3CCOCC3)nc12 (centres undefined) ?
0

---

test system: Kaposi's sarcoma herpesvirus LANA C-terminal domain (residues 932-1162) DNA binding; test: inhibitors of KSHV C-LANA binding to DNA, primary screen, biochemical, fluorescence polarization, FAM-LBS DNA, MBP-C-LANA, single point (AID 504423); conditions: at 9 µM, hits give high values;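 also: 0% = neutral control wells and 100% = 4 µM acridine orange control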
Screen size: about 340,000 compounds; about 260 (0.076%) were called active. The list comes from a sample in which actives are over-represented; it also holds close analogues and randomly drawn compounds.
Entries and their inhibition values follow.
Numbers only; they are read as %.

Lookup result for O=S(=O)(c1ccc(-c2ccccc2)cc1)N1CCCC1 ; measured inhibition: 1.28

Measured inhibition, COc1ccc(/C=N/NC(=O)Cn2cc(C(F)(F)F)ccc2=O)cc1 : 0.0809

Record CSc1ccc(S(=O)(=O)NCC(=O)OCC(=O)NC2(C#N)CCCCC2)cc1[N+](=O)[O-] . Reported inhibition: -0.312

Lab note: CC(C)CCNC(=O)CC1C(=O)N(Cc2ccccc2)C(C)c2nc3ccccc3n21 (centres undefined) gave inhibition of 0.0911

# molecule CCOc1ccccc1N1CCN(C(=O)c2ccc3[nH]c(C)c(C)c3c2)CC1 ; its inhibition = -1.79

Measured inhibition, O=C1Nc2cc(C(=O)N3CCC(N4CCCCC4)CC3)ccc2S/C1=C\c1ccccc1 : -4.28

// sample CCN(CC(=O)Nc1ccc(OC)cc1)C(=O)c1ccc(Cl)c(S(=O)(=O)N2CCCC2)c1 , its inhibition was 3.81

---

# key: entry, value: inhibition
test system: Kaposi's sarcoma herpesvirus LANA C-terminal domain (residues 932-1162) DNA binding; assay: inhibitors of KSHV C-LANA binding to DNA, primary screen, biochemical, fluorescence polarization, FAM-LBS DNA, MBP-C-LANA, single point (AID 504423); details: at 9 µM, hits give high values;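 also: 0% = neutral control wells and 100% = 4 µM acridine orange control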
About 260 (0.076%) of roughly 340,000 compounds were called active. Many of the other results were omitted from the sample, so actives are more common in it than they were.
The figure you give is taken to be in %; do not add the unit.

Solved entries:
Cc1c(N=Nc2ccc(N(C)C)cc2)c(=O)n(-c2ccccc2)n1C: -5.21
COc1ccccc1-c1c(C#N)c(N)nc2c1CCC2: 1.17
CC1CCN(C(=O)c2ccccc2NC(=O)Cc2ccccc2)CC1: 2.17
Cc1ccc(C)c(-n2ccnc2SCC(N)=O)c1: -0.0657
CC(=O)Nc1ccc(SCC(=O)Nc2ccccc2Oc2ccccc2)cc1: 1.36

Item: COc1cccc(COC(=O)C2CCN(S(=O)(=O)c3ccc(Cl)cc3)CC2)c1OC | inhibition: 0.51

CC1(c2nnc(-c3ccncc3)o2)CC(c2cccnc2)=NO1 (stereo unspecified) has a reported inhibition of -1.07

Record summary for CCC(=O)OCc1c(C(F)(F)F)nn(C)c1Oc1cccc(C(F)(F)F)c1 : reported inhibition = 0.811

Sample CN1CCC2(CC1)NC(=O)NC2=O ; inhibition observed: 0.656

The measured inhibition associated with O=C(NCc1ccncc1)c1cccc(NS(=O)(=O)c2ccc(F)c(F)c2)c1 reads -0.916

Per the records, this molecule ( CC(C(=O)N(C)CC(=O)Nc1ccccc1C(F)(F)F)N1C(=O)c2ccccc2C1=O (stereo unspecified) ) has inhibition equal to 1.14

---

tested on: Kaposi's sarcoma herpesvirus LANA C-terminal domain (residues 932-1162) DNA binding; test: inhibitors of KSHV C-LANA binding to DNA, primary screen, biochemical, fluorescence polarization, FAM-LBS DNA, MBP-C-LANA, single point (AID 504423); conditions: at 9 µM, hits give high values;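 also: 0% = neutral control wells and 100% = 4 µM acridine orange control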
The whole screen tested about 340,000 compounds, of which about 260 (0.076%) were called active. What follows is part of a selection rich in actives, with near analogues and random picks from the rest.
resultType: inhibition (%)
Your answer is read as %, so omit the unit and give the number.

Reference set, count: 6
CCOC(=O)C1=C(O)/C(=C/c2cc(C)n(-c3ccccc3)c2C)N=C1C: 73.6
Cc1nn(C)cc1N1C(=O)c2cccc3c(N)ccc(c23)C1=O: 73
O=C1CCCc2c1[nH]c1ccc(Br)cc21: -0.926
COC1=C/C(=C/c2c(N)n3nc(CC(=O)N4CCOCC4)sc3nc2=O)C=CC1=O: 32.7
CCOC(=O)C1=C(O)/C(=C/c2ccc(OCC(=O)Nc3ccc(C)cc3)cc2)N=C1C: 0.825
O=c1[nH]nc(SCCS(=O)(=O)c2ccc(F)cc2)n1-c1ccccc1C(F)(F)F: -0.936

--- query ---
Per the records, this compound ( C(=N/N1CCN(c2ccccc2)CC1)/c1cccs1 ) has inhibition equal to -0.282

All values here come from PubChem BioAssay AID504423.
